CDK19/C Inhibition at 10µM (%) values for the compounds below.
TARGET_ENTITY: CDK19/Cyclin C (Homo sapiens)
Sequence (Q9BWU1 whole entry): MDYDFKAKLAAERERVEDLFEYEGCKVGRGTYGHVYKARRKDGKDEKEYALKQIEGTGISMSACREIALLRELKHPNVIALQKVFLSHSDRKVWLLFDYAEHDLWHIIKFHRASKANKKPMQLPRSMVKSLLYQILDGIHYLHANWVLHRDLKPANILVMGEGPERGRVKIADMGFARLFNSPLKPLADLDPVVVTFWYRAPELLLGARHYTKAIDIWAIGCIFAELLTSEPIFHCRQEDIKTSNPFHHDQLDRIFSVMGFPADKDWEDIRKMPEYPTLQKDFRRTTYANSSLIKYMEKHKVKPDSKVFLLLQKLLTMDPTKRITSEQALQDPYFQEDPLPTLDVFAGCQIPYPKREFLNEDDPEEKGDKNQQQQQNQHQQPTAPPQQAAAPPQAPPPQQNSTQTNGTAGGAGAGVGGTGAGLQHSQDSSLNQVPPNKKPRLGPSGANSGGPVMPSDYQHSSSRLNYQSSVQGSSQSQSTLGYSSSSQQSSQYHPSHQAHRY
Sequence (P24863 whole entry partner): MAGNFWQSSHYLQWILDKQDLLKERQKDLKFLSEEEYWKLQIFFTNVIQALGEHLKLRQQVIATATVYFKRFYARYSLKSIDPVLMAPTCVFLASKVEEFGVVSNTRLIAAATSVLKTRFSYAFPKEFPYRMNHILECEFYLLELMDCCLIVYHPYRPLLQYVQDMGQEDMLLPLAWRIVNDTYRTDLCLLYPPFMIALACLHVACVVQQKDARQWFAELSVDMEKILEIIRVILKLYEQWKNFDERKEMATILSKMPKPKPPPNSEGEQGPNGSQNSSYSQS
EXPERIMENTAL_PROTOCOL: NanoBRET live-cell target engagement, NanoLuc-CDK19/Cyclin C in HEK-293
STUDY_CONDITIONS: 10µM; independent experiment 2
MEASURE: CDK19/C Inhibition at 10µM (%)

1) Cc1c(Br)c(Br)c2c3c1nc(N1CCNCC1)n3CCC2.Cl [SEL 120-34A] = 102.0
2) CN(C)C/C=C/C(=O)Nc1ccc(C(=O)Nc2cccc(Nc3ncc(Cl)c(-c4c[nH]c5ccccc45)n3)c2)cc1 [THZ1] = 89.1
3) O=C1NCCc2[nH]c(-c3ccncc3)cc21 [PHA-767491] = 90.5
4) O=C1NC(=NCc2cccs2)S/C1=C\c1ccc2ncccc2c1 [RO-3306] = 23.8

* * *

TARGET_ENTITY: CDK12/Cyclin K (Homo sapiens, UniProt Q9NYV4)
Sequence (Q9NYV4 1-1481 isoform Q9NYV4-2): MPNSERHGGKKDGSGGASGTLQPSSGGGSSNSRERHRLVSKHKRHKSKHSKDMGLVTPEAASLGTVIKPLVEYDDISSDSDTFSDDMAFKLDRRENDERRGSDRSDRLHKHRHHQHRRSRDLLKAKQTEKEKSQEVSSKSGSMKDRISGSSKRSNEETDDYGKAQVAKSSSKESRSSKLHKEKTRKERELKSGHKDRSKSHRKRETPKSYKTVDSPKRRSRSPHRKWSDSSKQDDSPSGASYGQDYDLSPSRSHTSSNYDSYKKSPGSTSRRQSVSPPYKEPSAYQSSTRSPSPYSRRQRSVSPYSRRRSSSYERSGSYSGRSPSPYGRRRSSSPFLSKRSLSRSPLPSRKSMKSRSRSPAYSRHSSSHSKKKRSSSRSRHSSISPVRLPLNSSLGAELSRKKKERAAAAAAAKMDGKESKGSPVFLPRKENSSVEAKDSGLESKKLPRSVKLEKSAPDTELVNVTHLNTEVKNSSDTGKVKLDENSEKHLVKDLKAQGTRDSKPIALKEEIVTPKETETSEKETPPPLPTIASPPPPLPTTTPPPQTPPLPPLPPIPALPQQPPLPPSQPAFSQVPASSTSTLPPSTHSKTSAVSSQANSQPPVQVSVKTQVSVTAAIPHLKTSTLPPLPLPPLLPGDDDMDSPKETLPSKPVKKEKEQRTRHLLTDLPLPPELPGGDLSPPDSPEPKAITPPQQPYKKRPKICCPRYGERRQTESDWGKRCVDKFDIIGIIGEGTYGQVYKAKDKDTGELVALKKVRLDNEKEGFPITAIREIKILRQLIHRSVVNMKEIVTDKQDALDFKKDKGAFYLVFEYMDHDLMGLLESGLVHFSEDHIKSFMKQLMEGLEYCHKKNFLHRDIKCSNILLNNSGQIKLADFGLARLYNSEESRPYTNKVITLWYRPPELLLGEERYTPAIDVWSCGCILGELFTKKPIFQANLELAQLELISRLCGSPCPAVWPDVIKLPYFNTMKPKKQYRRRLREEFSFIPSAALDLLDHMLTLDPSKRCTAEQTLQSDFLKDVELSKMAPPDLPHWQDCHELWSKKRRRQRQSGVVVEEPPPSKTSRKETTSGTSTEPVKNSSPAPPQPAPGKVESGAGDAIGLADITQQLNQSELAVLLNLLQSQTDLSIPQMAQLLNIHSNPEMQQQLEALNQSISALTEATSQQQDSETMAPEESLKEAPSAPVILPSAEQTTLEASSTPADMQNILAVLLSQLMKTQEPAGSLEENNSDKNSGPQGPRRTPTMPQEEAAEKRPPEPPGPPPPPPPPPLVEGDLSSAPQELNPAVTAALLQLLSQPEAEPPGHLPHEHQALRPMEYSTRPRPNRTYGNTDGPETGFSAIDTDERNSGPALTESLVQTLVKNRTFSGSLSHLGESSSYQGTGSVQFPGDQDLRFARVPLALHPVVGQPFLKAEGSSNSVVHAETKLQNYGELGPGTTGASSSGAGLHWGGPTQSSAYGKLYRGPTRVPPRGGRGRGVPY
Sequence (O75909 whole entry partner): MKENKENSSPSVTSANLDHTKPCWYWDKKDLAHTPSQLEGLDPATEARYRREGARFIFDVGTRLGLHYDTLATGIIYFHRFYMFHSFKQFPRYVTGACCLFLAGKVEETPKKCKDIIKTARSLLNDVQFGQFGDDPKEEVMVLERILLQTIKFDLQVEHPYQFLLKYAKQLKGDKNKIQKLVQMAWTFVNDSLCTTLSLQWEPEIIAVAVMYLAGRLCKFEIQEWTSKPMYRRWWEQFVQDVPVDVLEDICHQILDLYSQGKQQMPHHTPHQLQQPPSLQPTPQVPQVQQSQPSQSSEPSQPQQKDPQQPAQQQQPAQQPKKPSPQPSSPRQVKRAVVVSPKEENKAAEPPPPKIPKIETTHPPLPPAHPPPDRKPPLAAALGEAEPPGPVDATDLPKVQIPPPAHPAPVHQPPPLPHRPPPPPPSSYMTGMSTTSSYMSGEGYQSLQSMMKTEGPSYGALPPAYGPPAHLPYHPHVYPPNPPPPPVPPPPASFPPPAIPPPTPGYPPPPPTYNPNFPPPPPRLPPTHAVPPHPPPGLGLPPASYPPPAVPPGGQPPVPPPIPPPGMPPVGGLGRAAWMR
EXPERIMENTAL_PROTOCOL: NanoBRET live-cell target engagement, CDK12-NanoLuc/Cyclin K in HEK-293
Type: binding
STUDY_CONDITIONS: CDK12/K; average; read-out: Inhibition at 10µM (%)
MEASURE: inhibition at 10 µM (%)

1) CN1CC[C@H](c2c(O)cc(O)c3c(=O)cc(-c4ccccc4Cl)oc23)[C@H](O)C1 [Flavopiridol] = 48.6
2) CC(C)c1cnn2c(NCc3ccccc3)cc(NC[C@H]3CCNC[C@@H]3O)nc12 [CT7001] = 43.6
3) NS(=O)(=O)c1ccc(Nc2nc(OCC3CCCCC3)c3nc[nH]c3n2)cc1 [NU6102] = 3.2
4) Cn1cc(-c2ccc(-c3cncc(Cl)c3N3CCC4(CCNC4=O)CC3)cc2)cn1 [CCT251545] = -2.2
5) CC(C)N1CCN(c2ccc(Nc3ncc4cc5n(c4n3)C3(CCCCC3)CNC5=O)nc2)CC1 [Lerociclib] = 8.7
6) CN1CCN(c2ccc(Nc3ncc4cc(C#N)c(=O)n(C5CCCC5)c4n3)cc2)CC1 [ON123300] = -3.9
7) N#CCNC(=O)c1ccc(-c2ccnc(Nc3ccc(N4CCOCC4)cc3)n2)cc1 [Momelotinib] = -8.8
8) CN1CCN(Cc2ccc(NC(=O)Nc3ccc(Oc4ccnc(N)n4)cc3)cc2C(F)(F)F)CC1 [K03861] = 43.7
9) CC(C)(C)c1nc(-c2cccc(NS(=O)(=O)c3c(F)cccc3F)c2F)c(-c2ccnc(N)n2)s1 [Dabrafenib] = 20.2

* * *

Inhibition at 10µM (%) values for the molecules below.
TARGET_ENTITY: CDK11A/Cyclin L2 (Homo sapiens, UniProt Q9UQ88)
Sequence (Q9UQ88 1-783): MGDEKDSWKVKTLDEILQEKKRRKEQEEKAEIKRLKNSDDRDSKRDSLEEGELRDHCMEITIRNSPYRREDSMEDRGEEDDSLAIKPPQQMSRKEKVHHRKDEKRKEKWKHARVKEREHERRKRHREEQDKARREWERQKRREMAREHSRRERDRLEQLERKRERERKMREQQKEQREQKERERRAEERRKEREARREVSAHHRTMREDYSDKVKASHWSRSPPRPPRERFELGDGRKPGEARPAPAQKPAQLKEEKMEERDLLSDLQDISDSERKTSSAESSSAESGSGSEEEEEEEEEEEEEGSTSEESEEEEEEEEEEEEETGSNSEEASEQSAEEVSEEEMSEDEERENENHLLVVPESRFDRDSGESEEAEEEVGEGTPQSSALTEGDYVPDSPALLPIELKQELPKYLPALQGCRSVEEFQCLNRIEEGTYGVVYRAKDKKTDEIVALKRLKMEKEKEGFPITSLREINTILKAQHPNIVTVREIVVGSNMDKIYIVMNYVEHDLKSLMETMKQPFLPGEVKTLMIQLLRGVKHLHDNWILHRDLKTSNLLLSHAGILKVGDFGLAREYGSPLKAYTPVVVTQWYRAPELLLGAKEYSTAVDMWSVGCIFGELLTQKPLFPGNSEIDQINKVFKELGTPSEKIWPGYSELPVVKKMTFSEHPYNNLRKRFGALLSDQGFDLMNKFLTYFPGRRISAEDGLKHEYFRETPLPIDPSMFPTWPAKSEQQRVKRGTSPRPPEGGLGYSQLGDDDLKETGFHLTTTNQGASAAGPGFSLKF
EXPERIMENTAL_PROTOCOL: NanoBRET live-cell target engagement, CDK11A-NanoLuc/Cyclin L2 in HEK-293
Assay type: binding
STUDY_CONDITIONS: CDK11a/L2; experiment 1
MEASURE: Inhibition at 10µM (%)

1) CNc1nc(C)c(-c2nc(Nc3cccc(S(N)(=O)=O)c3)ncc2F)s1 [CDKI-73] = 32.6%
2) CC(C)c1c2cc(-c3ccnc(N[C@H]4CC[C@H](NC5CCOCC5)CC4)n3)ccc2nn1C [LY2857785] = 95.3%
3) CCn1cnc2c(Nc3cccc(Cl)c3)nc(N[C@@H]3CCCC[C@@H]3N)nc21 [CGP74514A] = 16.5%
4) CS(=O)(=O)N1CCC(NC(=O)c2[nH]ncc2NC(=O)c2c(Cl)cccc2Cl)CC1 [NVP-LCQ195] = 93.9%
5) CN1CCC(c2c(O)cc(O)c3c(=O)cc(-c4ccccc4Cl)oc23)C1CO (stereo not drawn) [P276-00] = 43.4%
6) CC(C)c1cnn2c(NCc3ccccc3-n3cccn3)nc(OC3CCCNC3)nc12 (stereo not drawn) [LDC4297] = 51.7%
